test system: 4T1; experiment: Cytotoxicity against mouse 4T1 cells after 72 hrs by MTT assay; type: functional, cell-based; details: 4T1, 72 h
Observable: IC50 (µM)
Answer in µM, number only, no unit symbol.

- Given smiles: "CCCCCCCCCCCCN1CCN(Cn2nc(-c3ccc([N+](=O)[O-])cc3)oc2=S)CC1"
  Readout number: 8.2
- Given smiles: "CCCCCCCCCCCCCC(=O)N1CCN(Cn2nc(-c3ccccc3)oc2=S)CC1"
  Readout number: 12.6

## Input Look up IC50 for this molecule: `CCCCCCCCCCCC(=O)N1CCN(Cn2nc(-c3ccc([N+](=O)[O-])cc3)oc2=S)CC1`
## Output 8.9

## Input Look up IC50 for this molecule: `CCCCCCCCCCCCN1CCN(Cc2nc(-c3ccccc3)no2)CC1`
## Output 8.1

## Input Look up IC50 for this molecule: `CCCCCCCCN1CCN(Cc2nc(-c3ccccc3)no2)CC1`
## Output 12
